Tested on: SARS-CoV-2
Experiment: Antiviral assay (viral RNA in culture supernatant by RT-qPCR)
Details: Severe acute respiratory syndrome coronavirus 2, 72 h, read-out: CC50 (Antiviral Data), MOI of 0.05, 72 h, 96-well plate, RT-qPCR of viral RNA
In this section we review reported CC50 values for a set of molecules.

Previously resolved entries follow.
[
  {
    "molecule": "CC(C)O[C@@H]1C[C@@H](C(=O)NC(C#N)C[C@H]2CCNC2=O)N(C(=O)[C@@H](NC(=O)OCc2cccnc2)C(C)(C)C)C1 (stereo partly drawn)",
    "CC50": "> 100 µM"
  },
  {
    "molecule": "CC(C)(C)[C@H](NC(=O)c1ccccc1)C(=O)N1C[C@H]2[C@@H]([C@H]1C(=O)N[C@H](C#N)C[C@@H]1CCNC1=O)C2(C)C [drawing 68]",
    "CC50": "10.1 to 100 µM"
  },
  {
    "molecule": "CC(C)(C)[C@H](NC(=O)C(Cl)(Cl)Cl)C(=O)N1C[C@H]2[C@@H]([C@H]1C(=O)N[C@H](C#N)C[C@@H]1CCNC1=O)C2(C)C",
    "CC50": "> 100 µM"
  },
  {
    "molecule": "CCCN(CCC)[C@@H]1C[C@@H](C(=O)NC(C#N)Cc2cc(OS(=O)(=O)c3ccc(C)cc3)n(S(=O)(=O)c3ccc(C)cc3)n2)N(C(=O)[C@@H](NC(=O)C(F)(F)F)C(C)(C)C)C1 (stereo partly drawn)",
    "CC50": "> 100 µM"
  },
  {
    "molecule": "CCCN(CCC)[C@@H]1C[C@@H](C(=O)NC(C#N)C[C@@H]2CCNC2=O)N(C(=O)[C@@H](NC(=O)NC(C)(C)C)C(C)(C)C)C1 (stereo partly drawn)",
    "CC50": "> 100 µM"
  }
]

Now, please, on to the next molecule.
Lookup: // lookup CC50 for CC(C)O[C@@H]1C[C@@H](C(=O)NC(C#N)C[C@H]2CCNC2=O)N(C(=O)[C@@H](NC(=O)OCc2ccccn2)C(C)(C)C)C1 (stereo partly drawn)
Found: > 100 µM

Data credit: patent US20240285598A1
